- Experimental system: ENL(YEATS)-HiBiT (Homo sapiens, UniProt Q03111)
- Sequence (Q03111 1-138 limits assumed): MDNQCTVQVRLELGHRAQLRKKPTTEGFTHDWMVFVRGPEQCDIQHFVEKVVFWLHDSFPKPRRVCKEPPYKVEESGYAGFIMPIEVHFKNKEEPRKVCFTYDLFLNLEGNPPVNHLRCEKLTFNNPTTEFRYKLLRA
- Assay remarks: cell-based
IC50 strictly under 8 µM means MET; at 8 µM or over means NOT MET.

{"Compound": "O=C(O)COC1CCN(CCC(=O)Nc2cccc(-c3cn4cc(C(=O)NC5CCC5)ccc4n3)c2)CC1", "Experimental system": "ENL(YEATS)-HiBiT (Homo sapiens, UniProt Q03111)", "Label class": "MET"}
{"Compound": "CC(C)(C)C1CC(NC(=O)c2ccc3nc(-c4ccccc4)cn3c2)C1 (centres unmarked)", "Experimental system": "ENL(YEATS)-HiBiT (Homo sapiens, UniProt Q03111)", "Label class": "NOT MET"}
{"Compound": "O=C(NC1CCC(O)CC1)c1ccc2nc(-c3ccccc3)cn2c1 (centres unmarked)", "Experimental system": "ENL(YEATS)-HiBiT (Homo sapiens, UniProt Q03111)", "Label class": "NOT MET"}
{"Compound": "Cc1ccccc1-c1cn2cc(C(=O)NC(C)C)ccc2n1", "Experimental system": "ENL(YEATS)-HiBiT (Homo sapiens, UniProt Q03111)", "Label class": "NOT MET"}
{"Compound": "CC(NC(=O)c1ccc2nc(-c3ccccc3)cn2c1)c1ccncc1 (centres unmarked)", "Experimental system": "ENL(YEATS)-HiBiT (Homo sapiens, UniProt Q03111)", "Label class": "NOT MET"}
{"Compound": "CC(C)NC(=O)c1ccc2nc(-c3ccncc3)cn2c1", "Experimental system": "ENL(YEATS)-HiBiT (Homo sapiens, UniProt Q03111)", "Label class": "NOT MET"}
{"Compound": "O=C(NC1(CO)CCC1)c1ccc2nc(-c3ccccc3)cn2c1", "Experimental system": "ENL(YEATS)-HiBiT (Homo sapiens, UniProt Q03111)", "Label class": "NOT MET"}
{"Compound": "Cc1ccc(C2CCC2NC(=O)c2ccc3nc(-c4ccccc4)cn3c2)c(C)c1 (centres unmarked)", "Experimental system": "ENL(YEATS)-HiBiT (Homo sapiens, UniProt Q03111)", "Label class": "NOT MET"}
{"Compound": "O=C(CN1CCCCC1)Nc1cccc(-c2cn3cc(C(=O)NC4CCC4)ccc3n2)c1", "Experimental system": "ENL(YEATS)-HiBiT (Homo sapiens, UniProt Q03111)", "Label class": "MET"}
{"Compound": "COc1ccccc1-c1cn2cc(C(=O)NC(C)C)ccc2n1", "Experimental system": "ENL(YEATS)-HiBiT (Homo sapiens, UniProt Q03111)", "Label class": "NOT MET"}
{"Compound": "CC1CCCCN1CCNS(=O)(=O)Nc1cccc(-c2cn3cc(C(=O)NC4CCC4)ccc3n2)c1 (centres unmarked)", "Experimental system": "ENL(YEATS)-HiBiT (Homo sapiens, UniProt Q03111)", "Label class": "MET"}
{"Compound": "O=C(NC1CCC1)c1ccc2nc(-c3cccc(S(=O)(=O)NCCN4CCCCC4)c3)cn2c1", "Experimental system": "ENL(YEATS)-HiBiT (Homo sapiens, UniProt Q03111)", "Label class": "MET"}
{"Compound": "COC[C@@H]1CC[C@@H]1NC(=O)c1ccc2nc(-c3ccccc3)cn2c1", "Experimental system": "ENL(YEATS)-HiBiT (Homo sapiens, UniProt Q03111)", "Label class": "NOT MET"}
{"Compound": "CC(C)N(C)C(=O)c1ccc2nc(-c3ccccc3)cn2c1", "Experimental system": "ENL(YEATS)-HiBiT (Homo sapiens, UniProt Q03111)", "Label class": "NOT MET"}
{"Compound": "O=C(NC1CCC1)c1ccc2nc(-c3ccccc3)cn2c1", "Experimental system": "ENL(YEATS)-HiBiT (Homo sapiens, UniProt Q03111)", "Label class": "MET"}
{"Compound": "O=C(N[C@H]1CCc2ccccc21)c1ccc2nc(-c3ccccc3)cn2c1", "Experimental system": "ENL(YEATS)-HiBiT (Homo sapiens, UniProt Q03111)", "Label class": "NOT MET"}
{"Compound": "COC1CCN(CCNS(=O)(=O)Nc2cccc(-c3cn4cc(C(=O)NC5CCC5)ccc4n3)c2)CC1", "Experimental system": "ENL(YEATS)-HiBiT (Homo sapiens, UniProt Q03111)", "Label class": "MET"}
{"Compound": "O=C(NCCN1CCCCC1)Nc1cccc(-c2cn3cc(C(=O)NC4CCC4)ccc3n2)c1", "Experimental system": "ENL(YEATS)-HiBiT (Homo sapiens, UniProt Q03111)", "Label class": "MET"}
{"Compound": "O=C(CCN1CCCCC1)Nc1cccc(-c2cn3cc(C(=O)NC4CCC4)ccc3n2)c1", "Experimental system": "ENL(YEATS)-HiBiT (Homo sapiens, UniProt Q03111)", "Label class": "MET"}
{"Compound": "Cc1cccc(-c2cn3cc(C(=O)NC(C)C)ccc3n2)c1", "Experimental system": "ENL(YEATS)-HiBiT (Homo sapiens, UniProt Q03111)", "Label class": "NOT MET"}
{"Compound": "O=C(CCCCN1CCCCC1)Nc1cccc(-c2cn3cc(C(=O)NC4CCC4)ccc3n2)c1", "Experimental system": "ENL(YEATS)-HiBiT (Homo sapiens, UniProt Q03111)", "Label class": "MET"}
{"Compound": "CC(C)NC(=O)c1ccc2nc(-c3ccccc3OC(F)(F)F)cn2c1", "Experimental system": "ENL(YEATS)-HiBiT (Homo sapiens, UniProt Q03111)", "Label class": "NOT MET"}
{"Compound": "Cc1ccc(-c2cn3cc(C(=O)NC(C)C)ccc3n2)cc1C", "Experimental system": "ENL(YEATS)-HiBiT (Homo sapiens, UniProt Q03111)", "Label class": "NOT MET"}
{"Compound": "CC1CCN(CCNS(=O)(=O)Nc2cccc(-c3cn4cc(C(=O)NC5CCC5)ccc4n3)c2)CC1", "Experimental system": "ENL(YEATS)-HiBiT (Homo sapiens, UniProt Q03111)", "Label class": "MET"}
{"Compound": "COC[C@@H]1CC[C@H]1NC(=O)c1ccc2nc(-c3ccccc3)cn2c1", "Experimental system": "ENL(YEATS)-HiBiT (Homo sapiens, UniProt Q03111)", "Label class": "NOT MET"}
{"Compound": "C#CC1CC(NC(=O)c2ccc3nc(-c4ccccc4)cn3c2)C1 (centres unmarked)", "Experimental system": "ENL(YEATS)-HiBiT (Homo sapiens, UniProt Q03111)", "Label class": "NOT MET"}
{"Compound": "CC(C)NC(=O)c1ccc2nc(-c3cccc(C(F)(F)F)c3)cn2c1", "Experimental system": "ENL(YEATS)-HiBiT (Homo sapiens, UniProt Q03111)", "Label class": "NOT MET"}
{"Compound": "Cc1ccc(-c2cn3cc(C(=O)NC4CCC4)ccc3n2)cc1", "Experimental system": "ENL(YEATS)-HiBiT (Homo sapiens, UniProt Q03111)", "Label class": "MET"}
{"Compound": "O=C(NC1(c2ccccc2)CCC1)c1ccc2nc(-c3ccccc3)cn2c1", "Experimental system": "ENL(YEATS)-HiBiT (Homo sapiens, UniProt Q03111)", "Label class": "NOT MET"}
{"Compound": "O=C(NC1CCC1)c1ccc2nc(-c3cccc(NS(=O)(=O)NCCN4CCC(F)(F)CC4)c3)cn2c1", "Experimental system": "ENL(YEATS)-HiBiT (Homo sapiens, UniProt Q03111)", "Label class": "MET"}
{"Compound": "COc1cccc(-c2cn3cc(C(=O)NC(C)C)ccc3n2)c1", "Experimental system": "ENL(YEATS)-HiBiT (Homo sapiens, UniProt Q03111)", "Label class": "NOT MET"}
{"Compound": "O=C(NC1Cc2ccccc21)c1ccc2nc(-c3ccccc3)cn2c1 (centres unmarked)", "Experimental system": "ENL(YEATS)-HiBiT (Homo sapiens, UniProt Q03111)", "Label class": "NOT MET"}
{"Compound": "O=C(CCN1CCNCC1)Nc1cccc(-c2cn3cc(C(=O)NC4CCC4)ccc3n2)c1", "Experimental system": "ENL(YEATS)-HiBiT (Homo sapiens, UniProt Q03111)", "Label class": "MET"}
